System: LNCaP tumor-transplanted mouse
Test details: Internal radioactivity distribution using LNCaP tumor-transplanted mouse
Type: in vivo
Condition info: 192 h after administration
Reported endpoint: LNCaP Tumor
Please give the number followed by its unit.

Some solved entries appear below for comparison.
Compound	LNCaP Tumor
O=C([O-])CN1CCN(C(CCC(=O)NCCCC[C@H](NC(=O)N[C@@H](CCC(=O)O)C(=O)O)C(=O)O)C(=O)[O-])CCN(CC(=O)[O-])CCN(C(CCC(=O)Nc2ccccc2)C(=O)[O-])CC1.[111In+3] (some centres unmarked) [[^111In]In-PSMA-DB, reference compound]	0.83 ± 0.11 % ID/g
O=C([O-])CN1CCN(C(CCC(=O)NCCCC[C@H](NC(=O)N[C@@H](CCC(=O)O)C(=O)O)C(=O)O)C(=O)[O-])CCN(CC(=O)[O-])CCN(C(CCC(=O)N[C@@H](CCCCNC(=O)CCCc2ccc(I)cc2)C(=O)O)C(=O)[O-])CC1.[111In+3] (some centres unmarked) [[^111In]In-PSMA-DA1]	4.69 ± 1.32 % ID/g
O=C([O-])CN(Cc1cccc(C(=O)[O-])n1)C[C@H](Cc1ccc(NC(=O)[C@H](CCCCNC(=O)CCC(=O)NCCCC[C@H](NC(=O)N[C@@H](CCC(=O)O)C(=O)O)C(=O)O)NC(=O)COCCOCCOCC(=O)N[C@@H](CCCCNC(=O)CCCc2ccc(I)cc2)C(=O)O)cc1)N(CC(=O)[O-])Cc1cccc(C(=O)[O-])n1.[111In+3] [[^111In]In-Octapa-3]	1.31 ± 0.49 % ID/g
O=C([O-])CN(Cc1cccc(C(=O)[O-])n1)C[C@H](Cc1ccc(NC(=O)[C@H](CCCCNC(=O)CCC(=O)NCCCC[C@H](NC(=O)N[C@@H](CCC(=O)O)C(=O)O)C(=O)O)NC(=O)CCCc2ccc(I)cc2)cc1)N(CC(=O)[O-])Cc1cccc(C(=O)[O-])n1.[111In+3] [[^111In]In-Octapa-2]	1.76 ± 0.45 % ID/g

Next, consider the following compound.
response.value for O=C([O-])CN(CCN(CCc1ccc(NC(=O)CCCCCNC(=O)CCC(=O)NCCCC[C@H](NC(=O)N[C@@H](CCC(=O)O)C(=O)O)C(=O)O)cc1)CCN(CC(=O)[O-])Cc1cccc(C(=O)[O-])n1)Cc1cccc(C(=O)[O-])n1.[111In+3] [[^111In]In-Neunpa-1, reference compound] (field: LNCaP Tumor) = 0.15 % ID/g
